Recorded F (BAFF), one value per entry.
experimental_target: human BAFF (human, UniProt Q9Y275 82-285, limits assumed)
Sequence (Q9Y275 82-285 limits assumed): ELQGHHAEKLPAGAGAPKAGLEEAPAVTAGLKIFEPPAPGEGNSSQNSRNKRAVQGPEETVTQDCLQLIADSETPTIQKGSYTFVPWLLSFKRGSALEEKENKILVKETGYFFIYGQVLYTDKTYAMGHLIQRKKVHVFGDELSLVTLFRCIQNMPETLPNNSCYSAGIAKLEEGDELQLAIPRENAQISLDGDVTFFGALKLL
protocol_notes: shotgun scan, phage display
In your answer, state the number alone without any accompanying words.

Consider the following illustrative entries.
- binder: "SLSCAKEQGKFYDHLLRDCISCASICGQHPKQCAYFCENKLR (receptor, phage library variant, format as m9) [TACI_d2 R72A]"
  F (BAFF): 0.4
- binder: "SLSCRKEAGKFYDHLLRDCISCASICGQHPKQCAYFCENKLR (receptor, phage library variant, format as m9) [TACI_d2 Q75A]"
  F (BAFF): 0.9
- binder: "SLSCRTEQGKFYDHLLRDCISCASICGQHPKQCAYFCENKLR (receptor, phage library variant, format as m9) [TACI_d2 K73T]"
  F (BAFF): 8.9
- binder: "SLSCRKEQGKFYDHLLRDCISCASICAQHPKQCAYFCENKLR (receptor, phage library variant, format as m9) [TACI_d2 G94A]"
  F (BAFF): 10
- binder: "SLSCRKEQGKFYDHLLRDCISCASICGQHPKPCAYFCENKLR (receptor, phage library variant, format as m9) [TACI_d2 Q99P]"
  F (BAFF): 1.8

Find the recorded F (BAFF) belonging to SLSCRKEQGKFYDHLLRDCISCASICGQHPKQCAYFCENTLR (receptor, phage library variant, format as m9) [TACI_d2 K107T] and report it.
1.1

Find the recorded F (BAFF) belonging to SLSCRKEQGKFYDHLVRDCISCASICGQHPKQCAYFCENKLR (receptor, phage library variant, format as m9) [TACI_d2 L83V] and report it.
1.6
